# System: Akkermansia muciniphila
# METHOD SUMMARY: growth AUC relative to DMSO control (median of replicates) (fraction); higher = more growth (less inhibition), active = hit call of the paper
# EXPERIMENTAL SETUP: 20 µM; 24 h
Label scheme, based on growth AUC: lower segment (below 0.9), middle segment (0.9 to below 1), upper segment (1 or more)

Study these solved cases before continuing.
COMPOUND | LABEL VALUE
COP(=O)(OC)O/C(C)=C/C(=O)N(C)C | upper segment
N#Cc1c(Cl)c(Cl)c(Cl)c(C#N)c1Cl | middle segment
CC(C1CC1)C(O)(Cn1cncn1)c1ccc(Cl)cc1 (mixture of isomers) | upper segment
O=C1C=CC(=O)C=C1 | middle segment
C#CC(C)(C)NC(=O)c1cc(Cl)cc(Cl)c1 | upper segment

**Query** Returns: class label. Input: CCc1cccc(CC)c1N(COC)C(=O)CCl
**Result** middle segment

**Query** Returns: class label. Input: CNC(=O)Oc1ccc(N(C)C)c(C)c1
**Result** upper segment

**Query** Returns: class label. Input: CO/C=C(/C(=O)OC)c1ccccc1Oc1cc(Oc2ccccc2C#N)ncn1
**Result** upper segment

**Query** Returns: class label. Input: CCCCc1c(C)nc(NCC)nc1OS(=O)(=O)N(C)C
**Result** upper segment

**Query** Returns: class label. Input: CCOC1Oc2ccc(OS(C)(=O)=O)cc2C1(C)C (centres undefined)
**Result** upper segment

**Query** Returns: class label. Input: COP(=S)(OC)Oc1ccc(S(=O)(=O)N(C)C)cc1
**Result** lower segment

**Query** Returns: class label. Input: ClC1=C(Cl)[C@]2(Cl)[C@@H]3[C@H]4C[C@H]([C@@H]5O[C@H]45)[C@@H]3[C@@]1(Cl)C2(Cl)Cl
**Result** lower segment

* * *

# Tested on: Bacteroides uniformis
# METHOD SUMMARY: growth AUC relative to DMSO control (median of replicates) (fraction); higher = more growth (less inhibition), active = hit call of the paper
# EXPERIMENTAL SETUP: 20 µM; 24 h
Readings of growth AUC for the listed molecules
Note: the reply should be a number with no unit written.

Before answering, review these 5 worked examples.
MOLECULE | MEASUREMENT LABEL | VALUE REPORTED
CCOP(=S)(OCC)Oc1ccc(S(C)=O)cc1 (stereo not given) | growth AUC | 0.993
CC(C)c1ccc(NC(=O)N(C)C)cc1 | growth AUC | 1.02
CC(Oc1cc(Cl)c(Cl)cc1Cl)C(=O)O (stereo not given) | growth AUC | 0.987
COP(=O)(OC)Oc1ccc(SC)c(C)c1 | growth AUC | 0.982
Cc1cc(C(F)(C(F)(F)F)C(F)(F)F)ccc1NC(=O)c1cccc(I)c1C(=O)NC(C)(C)CS(C)(=O)=O | growth AUC | 1.01

growth AUC reading for CO/C=C(/C(=O)OC)c1ccccc1COc1cccc(C(F)(F)F)n1 : 0.927

growth AUC reading for CCN(Cc1ccc(Cl)nc1)/C(=C/[N+](=O)[O-])NC : 1.01

* * *

# System: Bifidobacterium longum subsp. longum
# METHOD SUMMARY: growth AUC relative to DMSO control (median of replicates) (fraction); higher = more growth (less inhibition), active = hit call of the paper
# EXPERIMENTAL SETUP: 20 µM; 24 h
MEASUREMENT LABEL: growth AUC
Note: the reply should be a number with no unit written.

Before answering, review these 5 worked examples.
MOLECULE | VALUE REPORTED
CCOP(=O)(NC(C)C)Oc1ccc(SC)c(C)c1 (centres undefined) | 1.01
C[N+]1(C)CCCCC1.[Cl-] | 1.01
COP(=S)(Oc1cc(Cl)c(Br)cc1Cl)c1ccccc1 (centres undefined) | 1.02
Nc1c(Cl)c(F)nc(OCC(=O)O)c1Cl | 0.917
Nc1nc(N)[nH]c(=O)n1 | 1.02

growth AUC reading for CCCN(CCC)C(=O)SCc1ccccc1 : 0.967

growth AUC reading for OCC(O)CCl (centres undefined) : 0.965

growth AUC reading for Clc1ccccc1-c1nnc(-c2ccccc2Cl)nn1 : 0.825

growth AUC reading for C=CCNC(=O)c1c([Si](C)(C)C)sc(C)c1C : 0.966

growth AUC reading for Nc1cc(Cl)cc(Cl)c1 : 1.08

growth AUC reading for CC1(C)C(/C=C(\Cl)c2ccc(Cl)cc2)C1C(=O)OC(C#N)c1ccc(F)c(Oc2ccccc2)c1 (centres undefined) : 0.94

growth AUC reading for CCOP(=S)(OCC)SCSc1ccc(Cl)cc1 : 1.03

growth AUC reading for COCc1cnc(C2=NC(C)(C(C)C)C(=O)N2)c(C(=O)O)c1 (centres undefined) : 1.22

Origin of measurements: the supplement of paper PMC12669032
